Hi there, I'd appreciate the recorded switch fluorescence ratio for every entry that follows.
test system: ATP; test: switch fluorescence ratio, 500 uM ATP over buffer (Cy3 cluster intensity, sum of 5 cycles each) (fold (ratio)); higher = stronger signal-on switching upon ATP binding; sequences stand for … in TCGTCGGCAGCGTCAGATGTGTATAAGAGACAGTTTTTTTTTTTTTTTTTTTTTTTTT…TC; details: aptamer strand: ATP DNA aptamer (quencher-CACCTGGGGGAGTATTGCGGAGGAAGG + anchor), 100 nM annealed; ATP concentration: 500 uM;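 also: ATP exposure 15 min at 22 °C before imaging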

Exercise: Would you kindly share the measured switch fluorescence ratio for "TTCTCACGTC" ?
Key: 1.01

Exercise: Would you kindly share the measured switch fluorescence ratio for "TGGGGGACCC" ?
Key: 1

Exercise: Would you kindly share the measured switch fluorescence ratio for "TATCTCGGGA" ?
Key: 0.988

Exercise: Would you kindly share the measured switch fluorescence ratio for "AGGTTTTGTG" ?
Key: 1.02

Exercise: Would you kindly share the measured switch fluorescence ratio for "TAAACAATTT" ?
Key: 0.978

Exercise: Would you kindly share the measured switch fluorescence ratio for "CTTTCTAGCG" ?
Key: 0.995

Exercise: Would you kindly share the measured switch fluorescence ratio for "AAGTTGTCTG" ?
Key: 0.978

Exercise: Would you kindly share the measured switch fluorescence ratio for "TAGGAGTGAA" ?
Key: 0.979
